Origin of the recorded values: the supplement of paper PMC11451515

system: NOMO1; assay: cell viability relative to DMSO control; higher = less cytotoxic; settings: RPMI 5 mM glucose + 10% dialyzed FBS; 48 h; 46.1 µM
READOUT_TYPE: cell viability (%)
Dear colleague, please return just the value in %, with no unit written.

Recorded cell viability, per entry:
{"columns": ["MOLECULE", "TARGET", "cell viability [%]"],
 "data": [
  ["O=C(Nc1ccccc1-c1cn2c(CN3CCNCC3)csc2n1)c1cnc2ccccc2n1", "NOMO1", 75.1],
  ["FC(F)c1nc2ccccc2n1-c1nc(N2CCOCC2)nc(N2CCOCC2)n1", "NOMO1", 34.4],
  ["CN1CCN(c2ccc([N+](=O)[O-])c3no[n+]([O-])c23)CC1", "NOMO1", 72.4],
  ["CCOC(=O)\\C1=C(/C)N\\C2=C(C1C3=CC=C(C=C3)C4=CC=CC=C4)\\C(=O)CC(C)(C)C2 (configuration not stated)", "NOMO1", 74.8],
  ["C[C@@H]\\1CC(=O)N\\N=C1C2=CC=C(NN=C(C#N)C#N)C=C2", "NOMO1", 9.26]
]}

# cell viability of "CN[C@@H]1[C@H](O)[C@H](NC)[C@H]2O[C@@]3(O)C(=O)C[C@@H](C)O[C@H]3O[C@@H]2[C@H]1O" = 91.4

# cell viability of "O=C(c1ccc(Nc2nccc(-c3cc4ccccc4s3)n2)cc1)N1CCC(N2CCCC2)CC1" = 2.88

====

// cell viability lookup, one value per entry
system: SEM cells; assay: cell viability relative to DMSO control; higher = less cytotoxic; settings: HPLM + 10% dialyzed FBS; 48 h; 0.19 µM
Dear colleague, please return just the value in %, with no unit written.

Recorded cell viability, per entry:
{"columns": ["MOLECULE", "cell viability, %"],
 "data": [
  ["CC(=O)N[C@H]1[C@H](O[C@@H]2c3ccc(c(Cl)c3)Oc3cc4cc(c3O[C@@H]3O[C@H](CO)[C@@H](O)[C@H](O)[C@H]3NC(=O)CCCCCCCC(C)C)Oc3ccc(cc3Cl)C[C@H]3NC(=O)[C@H](N)c5ccc(O)c(c5)Oc5cc(O)cc(c5)[C@H](NC3=O)C(=O)N[C@H]4C(=O)N[C@H]3C(=O)N[C@@H]2C(=O)N[C@@H](C(=O)O)c2cc(O)cc(O[C@H]4O[C@H](CO)[C@@H](O)[C@H](O)[C@@H]4O)c2-c2cc3ccc2O)O[C@H](CO)[C@@H](O)[C@@H]1O", 121],
  ["CC(=O)O[C@H]1C[C@@H]2CC[C@@H]3[C@H](CC[C@@]4(C)[C@H]3C[C@H]([N+]3(C)CCCCC3)[C@@H]4OC(C)=O)[C@@]2(C)C[C@@H]1N1CCCCC1", 144]
]}

Consider the record given below.
# cell viability of C/C=C1\C2C=C(C)CC1(N)c1ccc(=O)[nH]c1C2 (stereo not drawn) = 94.2

====

// cell viability lookup, one value per entry
tested on: P12-Ichikawa; experiment: cell viability relative to DMSO control; higher = less cytotoxic; settings: RPMI 5 mM glucose + 10% dialyzed FBS; 48 h; 15.4 µM
Dear colleague, please return just the value in %, with no unit written.

{"columns": ["COMPOUND", "ASSAY_VALUE"],
 "data": [
  ["Cc1cnc(NC(=O)Nc2cc(Br)c(C)cc2OC[C@@H]2CNCCO2)cn1", 82.4],
  ["C/C=C1\\C2C=C(C)CC1(N)c1ccc(=O)[nH]c1C2 (configuration not stated)", 95.2],
  ["C\\C1=C(\\C=C(\\C#N)C(=O)N1)C2=CC=NC=C2", 108],
  ["C[C@@H]\\1CC(=O)N\\N=C1C2=CC=C(NN=C(C#N)C#N)C=C2", 72.9],
  ["COC1=C2OC(=O)\\C=C/C2=CC3=C1OC=C3", 60.2],
  ["COc1cc2ncnc(Nc3ccc(F)c(Cl)c3)c2cc1NC(=O)/C=C/CN1CCCCC1", 76]
]}

Consider the record given below.
# cell viability of "CC(C)CC(=O)N[C@H](C(=O)N[C@H](C(=O)N[C@@H](CC(C)C)[C@@H](O)CC(=O)N[C@@H](C)C(=O)N[C@@H](CC(C)C)[C@@H](O)CC(=O)O)C(C)C)C(C)C" = 97.6

====

// cell viability lookup, one value per entry
test system: SEM cells; assay: cell viability relative to DMSO control; higher = less cytotoxic; details: RPMI 5 mM glucose + 10% dialyzed FBS; 48 h; 0.00234 µM
Dear colleague, please return just the value in %, with no unit written.

Recorded cell viability, per entry:
{"columns": ["COMPOUND", "TARGET", "UNIT_TAG", "ASSAY_VALUE"],
 "data": [
  ["COC(=O)[C@@H]1[C@H]2C[C@H]3c4[nH]c5ccccc5c4CCN3C[C@@H]2CC[C@@H]1O", "SEM cells", "%", 109],
  ["COc1ccc(C2CNC(=O)C2)cc1OC1CCCC1 (configuration not stated)", "SEM cells", "%", 89.7],
  ["CN1CCN(c2ccc([N+](=O)[O-])c3no[n+]([O-])c23)CC1", "SEM cells", "%", 97.3],
  ["O=C(O)C1=NC(C(=O)O)CC(/C=C/N2c3cc(O)c(OC4OC(CO)C(O)C(O)C4O)cc3CC2C(=O)O)=C1 (configuration not stated)", "SEM cells", "%", 113],
  ["O=C(Nc1ccc(F)c(C(F)(F)F)c1)Nc1nnc(-c2ccncc2)s1", "SEM cells", "%", 114]
]}

// assay SEM cells, entry "C[C@@H]1[C@H](O)[C@@H](C)/C=C/C=C/C=C/C=C/C=C/C=C/C=C/[C@H](O[C@@H]2O[C@H](C)[C@@H](O)[C@H](N)[C@@H]2O)C[C@@H]2O[C@](O)(C[C@@H](O)C[C@@H](O)[C@H](O)CC[C@@H](O)C[C@@H](O)CC(=O)O[C@H]1C)C[C@H](O)[C@H]2C(=O)O" , cell viability value = 103

// assay SEM cells, entry "NC\1=N\C(=O)N(\C=C1)[C@@H]2O[C@H](CO)[C@@H](O)[C@H]2O" , cell viability value = 101

====

system: NOMO1; assay: cell viability relative to DMSO control; higher = less cytotoxic; settings: RPMI 5 mM glucose + 10% dialyzed FBS; 48 h; 0.0632 µM
READOUT_TYPE: cell viability (%)
Dear colleague, please return just the value in %, with no unit written.

{"columns": ["COMPOUND", "cell viability / %"],
 "data": [
  ["COc1ccc(-c2ccc3c(N4CCOC[C@@H]4C)nc(N4CCOC[C@@H]4C)nc3n2)cc1CO", 85.9],
  ["COc1ccc(-c2nc(N3CCOCC3)c3sc(CN(C)c4ncc(C(=O)NO)cn4)cc3n2)cn1", 22.8],
  ["CC/1=C(/N2[C@H](SC1)[C@H](NC(=O)[C@H](N)\\C3=C\\C\\C=C/C3)C2=O)C(O)=O", 115]
]}

# cell viability of OC[C@H]1OCC(O1)[N@@]2C=CC(N)=NC2=O (stereo partly specified) = 125

# cell viability of "C\C1=C(\C=C(C#N)/C(=O)N1)C2=C[N]3C=CN=C3C=C2" = 84.2

====

// cell viability lookup, one value per entry
system: NOMO1; assay: cell viability relative to DMSO control; higher = less cytotoxic; details: RPMI 5 mM glucose + 10% dialyzed FBS; 48 h; 0.000781 µM
Dear colleague, please return just the value in %, with no unit written.

Recorded cell viability, per entry:
{"columns": ["COMPOUND_STRING", "ASSAY_VALUE"],
 "data": [
  ["Nc1ncnc2c1c(-c1cnc3[nH]ccc3c1)nn2C1CCCC1", 106],
  ["CCOC(=O)C/1=C(O)/C(=O)N(CC2=CC=CC=C2)C1", 102],
  ["CC(C)C[C@H](NC(=O)[C@H](CCc1ccccc1)NC(=O)CN1CCOCC1)C(=O)N[C@@H](Cc1ccccc1)C(=O)N[C@@H](CC(C)C)C(=O)[C@@]1(C)CO1", 90.9]
]}

# cell viability of "C=C[C@H]1CN2CC[C@H]1C[C@H]2[C@H](O)c1ccnc2ccc(OC)cc12" = 92.3

====

// AUC of viability dose-response curve lookup, one value per entry
test system: NOMO1; assay: AUC of viability dose-response curve (% viability x log10 dose units); higher = less sensitive; conditions: HPLM + 10% dialyzed FBS; 48 h
Reply briefly: the number, and no unit.

Recorded AUC of viability dose-response curve, per entry:
{"columns": ["COMPOUND", "TARGET", "ASSAY_VALUE"],
 "data": [
  ["CCCCCC[C@H]1C(=O)O[C@H](C)[C@H](NC(=O)c2cccc(NC=O)c2O)C(=O)O[C@@H](C)[C@@H]1OC(=O)CC(C)C", "NOMO1", 444],
  ["CC/1=C(/N2[C@H](SC1)[C@H](NC(=O)[C@H](N)\\C3=C\\C\\C=C/C3)C2=O)C(O)=O", "NOMO1", 446],
  ["FC1=CC=C(SC/2=N/N3\\C=N/C(=O)/C(=C3/C=C2)C4=C(Cl)C=CC=C4Cl)C(=C1)F", "NOMO1", 457]
]}

Consider the record given below.
# AUC of viability dose-response curve of OC[C@H]1OCC(O1)[N@@]2C=CC(N)=NC2=O (some centres undefined) = 465
